- test-protocol: Volume of distribution at steady state in rat at 3 mg/kg, iv
- Type: ADME, organism-based
- Design: dose 3 mg/kg, route intravenous
- particulars: in vivo, read-out: Vdss

{"smiles": "Cc1ccc(C(F)(F)CNc2ccc(C#N)c(CC(=O)NCCONC(=N)N)c2F)nc1", "Vd [L/kg]": 2.3}

###

- test-protocol: Clearance in rat at 3 mg/kg, iv
- Assay type: ADME, organism-based
- Design: dose 3 mg/kg, route intravenous
- particulars: in vivo
measured-property: clearance

{"smiles": "Cc1ccc(C(F)(F)CNc2ccc(C#N)c(CC(=O)NCCONC(=N)N)c2F)nc1", "measured-property": "clearance", "observed-value": "30 mL/min/kg"}
